Where a name gives a salt, the structure may show the parent alone.
ENDPOINT NAME: melting point

# COMPOUND, ENDPOINT VALUE
data = [
    ("COc1ccnc(N2CCN(C(=O)c3ccsc3)CC2)n1 (as salt: HCl) (hydrate or solvate)", "154 to 156 °C"),
    ("COc1ccnc(N2CCN(C(=O)c3ccco3)CC2)n1 (as salt: HCl) (hydrate or solvate)", "162 to 164 °C"),
    ("Cc1sc2ccccc2c1Cl", "175 to 176 °C"),
    ("COc1ccnc(N2CCN(C(=O)c3cccs3)CC2)n1 (as salt: HCl) (hydrate or solvate)", "143 to 145 °C"),
]

Value source: patent US6372746B1
